Data origin, for the record: patent US4384118A

Parameter MIC, tested on Candida Alicans, listed per item.
measured_metric: MIC (µg/mL)

[I] CCCSc1ncc(OC)c(OCC#CI)n1
[II] Clc1cc(Cl)c(OCC#CI)cc1Cl [Haloprogine, reference compound]
[III] C=CCSc1nccc(OCC#CI)n1
Kindly sort the 3 compounds above from the smallest to the largest MIC. Please list the labels in the order you were asked to rank them.
III, II, I

* * *

These records show MIC for Trichophyton Mentagrophytes.
measured_metric: MIC (µg/mL)

Here is how some compounds turned out for MIC.
CCCSc1ncc(OC)c(OCC#CI)n1	0.07
Clc1ccccc1C(c1ccccc1)(c1ccccc1)n1ccnc1 [Clotrimazole, reference compound]	0.03

[P] C=CCSc1nccc(OCC#CI)n1
[Q] Clc1cc(Cl)c(OCC#CI)cc1Cl [Haloprogine, reference compound]
Given the listed items, does P or Q have the lesser reported MIC? Please reply using the label of the selected record.
P
(P: 0.07 µg/mL, Q: 0.6 µg/mL)
